PROTOCOL DETAILS: Cytotoxicity against human C3PV cells assessed as reduction in cell viability measured after 24 hrs by MTT assay
Type: cell-based
OBSERVABLE: IC50 (nM)
Express your answer in nM, writing the number without its unit.

Entry `CCc1c2c(nc3ccc(OC(=O)CCC(=O)O[C@@H]4O[C@@H]5O[C@]6(C)CC[C@H]7[C@H](C)CC[C@@H]([C@H]4C)[C@@]57OO6)cc13)-c1cc3c(c(=O)n1C2)COC(=O)[C@]3(O)CC` ; IC50 = 3200

Entry `CC[C@@]1(O)C(=O)OCc2c1cc1n(c2=O)Cc2cc3ccccc3nc2-1` ; IC50 = 450

Entry CCc1c2c(nc3ccc(O)cc13)-c1cc3c(c(=O)n1C2)COC(=O)[C@]3(O)CC [7-ETHYL-10-HYDROXYCAMPTOTHECIN] ; IC50 = 510

Entry `CC[C@@]1(OC(=O)CCC(=O)O[C@@H]2O[C@@H]3O[C@]4(C)CC[C@H]5[C@H](C)CC[C@@H]([C@H]2C)[C@@]35OO4)C(=O)OCc2c1cc1n(c2=O)Cc2cc3ccccc3nc2-1` ; IC50 = 300

Turning to the following compound.
Entry `CC(=O)O[C@H]1C(=O)[C@@]2(C)[C@H]([C@H](OC(=O)c3ccccc3)[C@]3(O)C[C@H](OC(=O)[C@H](O)[C@@H](NC(=O)c4ccccc4)c4ccccc4)C(C)=C1C3(C)C)[C@]1(OC(C)=O)CO[C@@H]1C[C@@H]2O` ; IC50 = 78900

====

Measured log10(IC50) by item
System: RPMI-7951
PROTOCOL DETAILS: Cytotoxicity against human RPMI7951 cells assessed as reduction in cell viability measured after 24 hrs by MTT assay
Assay type: functional, cell-based
MEASUREMENT CONDITIONS: RPMI-7951, 24 h
Recorded IC50 (log10, nM)

Past entries and their recorded results:
Entry CCc1c2c(nc3ccc(O)cc13)-c1cc3c(c(=O)n1C2)COC(=O)[C@]3(O)CC [7-ETHYL-10-HYDROXYCAMPTOTHECIN] ; log10(IC50) = 2.41

Entry CC(=O)O[C@H]1C(=O)[C@@]2(C)[C@H]([C@H](OC(=O)c3ccccc3)[C@]3(O)C[C@H](OC(=O)[C@H](O)[C@@H](NC(=O)c4ccccc4)c4ccccc4)C(C)=C1C3(C)C)[C@]1(OC(C)=O)CO[C@@H]1C[C@@H]2O [PACLITAXEL] ; log10(IC50) = 1.11

Entry CC[C@@]1(O)C(=O)OCc2c1cc1n(c2=O)Cc2cc3ccccc3nc2-1 [CAMPTOTHECIN] ; log10(IC50) = 2.34

Entry `CCc1c2c(nc3ccc(OC(=O)CCC(=O)O[C@@H]4O[C@@H]5O[C@]6(C)CC[C@H]7[C@H](C)CC[C@@H]([C@H]4C)[C@@]57OO6)cc13)-c1cc3c(c(=O)n1C2)COC(=O)[C@]3(O)CC` ; log10(IC50) = 1.70

Turning to the following compound.
Entry `CC[C@@]1(OC(=O)CCC(=O)O[C@@H]2O[C@@H]3O[C@]4(C)CC[C@H]5[C@H](C)CC[C@@H]([C@H]2C)[C@@]35OO4)C(=O)OCc2c1cc1n(c2=O)Cc2cc3ccccc3nc2-1` ; log10(IC50) = 4.24

====

SYSTEM TESTED: DNA topoisomerase 1 (Homo sapiens) (UniProt P11387)
Sequence (whole entry): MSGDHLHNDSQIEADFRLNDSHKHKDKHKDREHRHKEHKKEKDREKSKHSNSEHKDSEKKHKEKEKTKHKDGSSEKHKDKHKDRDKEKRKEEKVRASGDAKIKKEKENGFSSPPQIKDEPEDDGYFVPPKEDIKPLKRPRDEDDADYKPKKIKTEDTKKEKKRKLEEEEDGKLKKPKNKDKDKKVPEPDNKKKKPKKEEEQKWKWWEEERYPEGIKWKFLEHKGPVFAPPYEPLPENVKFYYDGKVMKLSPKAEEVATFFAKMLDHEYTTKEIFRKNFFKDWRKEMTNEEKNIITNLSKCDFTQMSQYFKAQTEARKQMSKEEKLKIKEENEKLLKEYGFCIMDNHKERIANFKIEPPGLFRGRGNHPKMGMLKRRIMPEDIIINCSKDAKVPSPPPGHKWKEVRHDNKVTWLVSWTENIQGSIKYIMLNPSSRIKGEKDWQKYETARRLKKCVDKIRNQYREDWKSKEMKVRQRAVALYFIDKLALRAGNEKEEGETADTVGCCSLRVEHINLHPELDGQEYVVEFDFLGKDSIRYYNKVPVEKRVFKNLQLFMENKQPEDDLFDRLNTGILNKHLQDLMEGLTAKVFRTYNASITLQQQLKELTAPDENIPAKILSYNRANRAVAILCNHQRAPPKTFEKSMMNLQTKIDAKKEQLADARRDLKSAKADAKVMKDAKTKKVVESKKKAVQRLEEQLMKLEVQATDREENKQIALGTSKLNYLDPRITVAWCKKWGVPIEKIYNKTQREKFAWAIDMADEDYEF
PROTOCOL DETAILS: Inhibition of human TOP1B expressed in Saccharomyces cerevisiae EKY3 lacking top1 assessed as reduction in yeast cell growth at 1 to 30 uM
The source made the active and inactive calls. No cut-off for these calls is given here.
Pick one: yes for active, no for inactive

Req: What is the recorded call for this compound in the test? `C[C@@H]1CC[C@H]2[C@@H](C)C(=O)O[C@@H]3O[C@@]4(C)CC[C@@H]1[C@]32OO4`
Resp: no

Req: What is the recorded call for this compound in the test? `C=C(C)[C@H]1CC=C(COC(=O)CCC(=O)O[C@@H]2O[C@@H]3O[C@@]4(C)CC[C@H]5[C@H](C)CC[C@@H]([C@H]2C)[C@@]35OO4)CC1`
Resp: no

Req: What is the recorded call for this compound in the test? `COc1cc(/C=C/C(=O)CC(=O)/C=C/c2ccc(OC(=O)CCC(=O)O[C@@H]3O[C@@H]4O[C@]5(C)CC[C@H]6[C@H](C)CC[C@@H]([C@H]3C)[C@@]46OO5)cc2)ccc1OC(=O)CCC(=O)O[C@@H]1O[C@@H]2O[C@]3(C)CC[C@H]4[C@H](C)CC[C@@H]([C@H]1C)[C@@]24OO3`
Resp: no

Attention now turns to another entry.
Req: What is the recorded call for this compound in the test? `CC[C@@]1(OC(=O)CCC(=O)O[C@@H]2O[C@@H]3O[C@]4(C)CC[C@H]5[C@H](C)CC[C@@H]([C@H]2C)[C@@]35OO4)C(=O)OCc2c1cc1n(c2=O)Cc2cc3ccccc3nc2-1`
Resp: yes
